- System: HCT-116 colon
- assay-comment: NCI-60 one-dose screen, 48 h (100 = growth as untreated, 0 = no growth, -100 = all killed)
- condition: 10 µM unless noted
- Description: Growth inhibition of the HCT-116 human tumor cell line is measured as a screen for anti-cancer activity. Cells are grown in 96 well plates and exposed to the test compound for 48 hours. Compounds are tested at a single concentration, which is 10^-5 M for most compounds. The reported endpoint is percent growth (GI% or GIPRCNT), where numbers from 0 - 100% represent growth inhibition, and numbers from -100% - 0 represent cell death. For example, a value of 40 represents 60% growth inhibition. […]
Compounds without any hit were thinned out: in the full panel of roughly 83,000, 20% have a hit.
Record form. Attribute: growth. Fill in for each entry.
One number for each entry, in %.

Field: example entries. Status: answers known.
[[record]]
compound = "Nc1ccc(/C=N/Nc2ccnc3c(N)cccc23)c2cccnc12"
endpoint_value = -93.1

[[record]]
compound = "COc1cc2nc3cc([N+](=O)[O-])ccc3c(NCCNCC(C)(C)O)c2cc1OC"
endpoint_value = -20.9

[[record]]
compound = "COc1cc(CO)cc2cc3ccccc3nc12"
endpoint_value = 98.5

[[record]]
compound = "CCCCC1=C(Br)C(=O)c2nc(C)ccc2C1=O"
endpoint_value = 42.7

[[record]]
compound = "O=C1C=C(Nc2ccccc2)c2ncccc2C1=O"
endpoint_value = -87.9

[[record]]
compound = "O=c1oc2c(Br)cc(Br)cc2cc1-c1cc(-c2ccc(-c3cc(-c4cc5cc(Br)cc(Br)c5oc4=O)nc(-c4cc5cc(Br)cc(Br)c5oc4=O)c3)cc2)cc(-c2cc3cc(Br)cc(Br)c3oc2=O)n1"
endpoint_value = 99.3

[[record]]
compound = "CCOC(=O)n1cc(-c2nonc2-c2cn(C)c3ccc(OC)cc23)c2cc(F)ccc21"
endpoint_value = 77.3

[[record]]
compound = "CN(Cc1ccccc1)c1nc(Cl)c(C2CC(c3ccc(F)cc3)=NN2C=O)s1 (configuration not stated)"
endpoint_value = 86.9

[[record]]
compound = "COc1ccc(-c2nn3c(-c4cc(F)c(Cl)cc4Cl)nnc3s2)cc1"
endpoint_value = 20.9

[[record]]
compound = "COC(=O)c1[nH]nc(OC)c1C1(C(C#N)c2nc3ccccc3s2)CCCc2ccccc21 (configuration not stated)"
endpoint_value = 104


Please go through the list and note growth for each compound.
1. Cc1ccc2c(c1)C(C)Cc1c(ncnc1-n1cnc3cc(C)ccc31)N2C (configuration not stated)
2. CC1(C)C(N)=Nc2cc(OCCCCN3Cc4ccccc4C3)c(OCC3CC3)cc21
3. CCN1CCN(C(=O)[C@]23CC[C@@H](C)[C@H](C)[C@@H]2C2=CC[C@@H]4[C@@]5(C)CCC(=O)C(C)(C)[C@@H]5CC[C@@]4(C)[C@]2(C)CC3)CC1
4. COc1cc(C=O)ccc1Oc1ccc([N+](=O)[O-])cc1[N+](=O)[O-]
5. CC1(C)C(N)=Nc2cc(OCCCN3Cc4ccc(OCCc5cn(CC(=O)N6CCC(CCN7CCCC7)CC6)nn5)cc4C3)c(OCC3CC3)cc21
6. O=C(Nc1ccccc1C(=O)N/N=C(\c1ccccc1)c1ccccn1)c1ccccc1
7. CC/C(=C(/c1ccc(O)cc1)c1ccc(OCCN2CCCCCC2)cc1)c1ccc(Cl)cc1

1. 11.2
2. 47
3. -48.3
4. 94.9
5. 103
6. 20.7
7. -53

* * *

- System: PC-3 prostate
- assay-comment: NCI-60 one-dose screen, 48 h (100 = growth as untreated, 0 = no growth, -100 = all killed)
- condition: 10 µM unless noted
This is part of a sample that, as a whole, favours compounds with a hit. Of some 83,000 tested, about 20% had one in any assay.
measurement-label: growth (%)
Answers are plain numbers, in %.

[[record]]
compound = "O=[N+]([O-])c1ccc2[nH]c3nccc(NCc4cccc(Cl)c4)c3c2c1"
endpoint_value = 67.5

[[record]]
compound = "OB(O)c1ccsc1-c1nc2ccc3[nH]ncc3c2c2c1CCCC2"
endpoint_value = 69.4


Please go through the list and note growth for each compound.
1. CCCc1cc(C(N)=S)ccn1
2. CCCN1C(=O)/C(=c2\sc3n(c2=O)NC2C(N=3)N(CC)C(=O)N2CC)c2ccccc21 (centres undefined)
3. O=C(NNC(=S)Nc1ccccc1)c1ccncc1
4. COc1cc(-c2nn(-c3cccc(NC(=O)CCN4CCN(C)CC4)c3)cc2-c2ccncc2)ccc1Cl
5. Nc1ccc(-c2nc3ccc4[nH]ncc4c3c3c2CCCC3)cc1F
6. Nc1nc2ccccc2c2c(=O)c3ccc(Cl)cc3sc12
7. COc1ccc(-c2cc(-c3cc(OC)c(OC)c(OC)c3)c(C#N)c(=O)n2CCCCC(=O)O)cc1

98.3
42.5
90.1
14
27.7
89.9
90.9

Please go through the list and note growth for each compound.
1. COc1ccc(/C=C/C(=O)c2cc3c(N)c(C(=O)Nc4ccccc4Cl)sc3nc2C)cc1
2. Cn1cc(-c2csc(-c3c[nH]c4ccc(F)cc34)n2)c2cnccc21
3. COc1ccc(Oc2nc(Nc3ccc(N4CCOCC4)cc3)ncc2NC(=O)c2cccc(C(F)(F)F)c2)cc1
4. [2H]C([2H])([2H])Oc1cc(F)ccc1/C=C/C(=O)/C=C(/C=C/c1ccc(F)cc1OC([2H])([2H])[2H])OB(F)F
5. CCc1c2c(nc3ccc(OCc4ccc(B5OC(C)(C)C(C)(C)O5)cc4)cc13)-c1cc3c(c(=O)n1C2)COC(=O)[C@]3(O)CC

59.2
20.5
53.7
43.8
26.9

* * *

- System: SF-295 CNS
- assay-comment: NCI-60 one-dose screen, 48 h
- condition: 10 µM unless noted
Compounds without any hit were thinned out: in the full panel of roughly 83,000, 20% have a hit. The source made the active and inactive calls. How the source made its calls: active means growth percent below 10; inactive means the rest.
Output constraint: value belongs to Y (active), N (inactive)

[[record]]
compound = "Nc1nc(N)c2c(n1)NC(c1cccc(Nc3ccnc4cc(C(F)(F)F)ccc34)c1)CC(c1ccc(F)cc1)=N2 (stereo unspecified)"
group = "N"

[[record]]
compound = "Nc1c(C(=O)Nc2ccncc2)sc2nc3c(cc12)CCCCCCCC3"
group = "Y"

[[record]]
compound = "CCCNNC(=O)/C=C/c1ccc(CNCCc2c(C)[nH]c3ccccc23)cc1"
group = "N"

[[record]]
compound = "COc1ccc(-c2ccccc2)cc1-c1c(Nc2cc(Cl)cc(Cl)c2O)c(=O)c1=O"
group = "Y"

[[record]]
compound = "CCNC(=S)n1nc(SC)c(C(=O)OCC)c1N"
group = "N"

[[record]]
compound = "O=C1C(=C(O)c2ccccc2)C(=O)c2ccccc21"
group = "N"

[[record]]
compound = "CNC(=O)c1cc(Oc2ccc3nc(NC(=O)Nc4ccc(C(F)(F)F)cc4)sc3c2)ccn1"
group = "N"

[[record]]
compound = "COc1cc2nc3cc([N+](=O)[O-])ccc3c(NCCNCC(C)(C)O)c2cc1OC"
group = "N"

[[record]]
compound = "CC(=O)c1c(C)nc2ccccc2c1/C=C/c1cccc(C)c1"
group = "N"

[[record]]
compound = "Cc1ccc(C(=O)N(CCCN)[C@@H](c2nc3cc(Cl)ccc3c(=O)n2Cc2ccccc2)C(C)C)cc1"
group = "Y"


Short answer needed: outcome of this test for "CCNC(=O)Oc1ccc(/C(=C(/C)Cc2ccc(OC)cc2)c2ccc(OCCN(CC)CC)cc2)cc1" ?
N

* * *

- System: BT-549 breast
- assay-comment: NCI-60 one-dose screen, 48 h
- condition: 10 µM unless noted
- Protocol: Growth inhibition of the BT-549 human tumor cell line is measured as a screen for anti-cancer activity. Cells are grown in 96 well plates and exposed to the test compound for 48 hours. Compounds are tested at a single concentration, which is 10^-5 M for most compounds. The reported endpoint is percent growth (GI% or GIPRCNT), where numbers from 0 - 100% represent growth inhibition, and numbers from -100% - 0 represent cell death. For example, a value of 40 represents 60% growth inhibition. […]
About 83,000 compounds went through this panel and 20% of them were active in at least one assay; those are over-represented in the sample as a whole. The source made the active and inactive calls. Rule for the calls: active = growth percent below 10; inactive = the rest.
Output constraint: value belongs to active, inactive

[[record]]
smi = "CCC(=O)Oc1cc(Cl)c(Cl)cc1Cl"
group = "inactive"

[[record]]
smi = "COc1ccc(/C=N/NC(=O)CN2CCN(c3cc4c(cc3F)c(=O)c(C(=O)O)cn4C3CC3)CC2)cc1O"
group = "inactive"

[[record]]
smi = "COC(=O)[C@H]1Cc2c([nH]c3ccccc23)[C@@H](c2cccs2)N1"
group = "inactive"

[[record]]
smi = "O=C1c2cccc3cccc(c23)C(=O)N1N1C(=O)c2cccc3c(N4CCNCC4)ccc(c23)C1=O"
group = "inactive"

[[record]]
smi = "Cc1ccc(C(=O)N(CCCN)[C@@H](c2nc3cc(Cl)ccc3c(=O)n2Cc2ccccc2)C(C)C)cc1"
group = "inactive"

[[record]]
smi = "C=CCN1C=CC(=O)[C@H](O[Si](C)(C)C(C)(C)C)[C@@H]1/C=C/c1ccccc1"
group = "active"


Short answer needed: outcome of this test for "FC(F)(F)Sc1ccc(/C=C/c2cc(/C=C/c3ccc(SC(F)(F)F)cc3)n(-c3ccccc3)n2)cc1" ?
inactive

Short answer needed: outcome of this test for "COc1ccc(-c2ccc(-c3ccc(C(=N)N)cn3)s2)cc1Cl" ?
inactive

Cited source for all entries: PubChem BioAssay (NCI)
